# assayed system: α-Glucosidase (Saccharomyces cerevisiae, UniProt P53341);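 also: yeast α-glucosidase premixed with inhibitor in phosphate buffer for 15 min at 37 °C, then a further 15 min reaction with p-NPG substrate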
# Construct: purchased Sigma (Sigma-Aldrich) G5003
# Sequence (P53341 whole entry): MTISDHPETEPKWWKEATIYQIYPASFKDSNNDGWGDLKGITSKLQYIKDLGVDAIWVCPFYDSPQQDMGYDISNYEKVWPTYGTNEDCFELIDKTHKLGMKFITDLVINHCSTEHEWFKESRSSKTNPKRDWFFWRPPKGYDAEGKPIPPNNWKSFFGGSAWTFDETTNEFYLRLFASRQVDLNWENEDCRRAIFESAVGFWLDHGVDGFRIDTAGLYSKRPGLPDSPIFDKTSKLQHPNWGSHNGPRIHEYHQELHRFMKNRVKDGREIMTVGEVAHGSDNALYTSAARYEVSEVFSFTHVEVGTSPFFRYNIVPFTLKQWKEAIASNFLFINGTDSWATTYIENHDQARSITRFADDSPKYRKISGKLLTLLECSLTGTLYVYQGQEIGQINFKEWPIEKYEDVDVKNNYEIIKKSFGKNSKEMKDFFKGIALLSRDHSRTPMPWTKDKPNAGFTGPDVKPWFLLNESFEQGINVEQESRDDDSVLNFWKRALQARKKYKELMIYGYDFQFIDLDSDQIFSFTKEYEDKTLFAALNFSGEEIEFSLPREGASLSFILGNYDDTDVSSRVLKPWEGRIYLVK
# run description: biochemical
result type: α-glucosidase inhibitory activity (judgement in words)

INSERT INTO measurements (compound, assayed_system, experimental_result) VALUES
  ('CC(C)(O)[C@@H]1CC[C@]2(C)CC[C@]3(C)[C@H](CC[C@@H]4[C@@]5(C)CCC(=O)C(C)(C)[C@@H]5CC[C@]43C)[C@@H]12 [Compound 5, 20-hydroxy-lupan-3-one]', 'α-Glucosidase (Saccharomyces cerevisiae, UniProt P53341)', 'inactive'),
  ('CC(C)(O)[C@@H]1CC[C@]2(C)CC[C@]3(C)[C@H](CC[C@@H]4[C@@]5(C)CC[C@H](O)C(C)(C)[C@@H]5CC[C@]43C)[C@@H]12', 'α-Glucosidase (Saccharomyces cerevisiae, UniProt P53341)', 'inactive');
